Listing of recorded pEC50 by entry.
Assayed Target: mAChR M1 (UniProt P11229)
Assay Comment: mAChR M1 cell-based functional assay (calcium mobilization, potentiation of EC20 acetylcholine response)
Protocol Conditions: positive allosteric modulation of EC20 ACh response, mAChR M1 CHO-K1 cells; >10 μM estimated where no plateau; read-out: EC50
pEC50: −log10 of the molar value.

{"Chemical Structure": "Cn1nccc1-c1ccc(CN2Cc3ccccc3C2=O)c(F)c1", "pEC50": "< 5.00"}
{"Chemical Structure": "COc1ncccc1-c1ccc(CN2Cc3ncccc3C2=O)c(F)c1", "pEC50": "< 5.00"}
{"Chemical Structure": "Cn1ncc2cc(-c3ccc(CN4Cc5cccnc5C4=O)c(F)c3)ccc21", "pEC50": "< 5.00"}
{"Chemical Structure": "Cn1cc2c(n1)CCN(c1ccc(CN3Cc4ncccc4C3=O)c(F)c1)C2", "pEC50": "< 5.00"}
{"Chemical Structure": "Cn1ncc2ccc(-c3ccc(CN4Cc5ccccc5C4=O)c(F)c3)cc21", "pEC50": "< 5.00"}
{"Chemical Structure": "Cn1cc(-c2ccc(CN3Cc4ccccc4C3=O)nc2)cn1", "pEC50": "< 5.00"}
{"Chemical Structure": "Cc1cc(-c2cccnc2)ccc1CN1Cc2cccnc2C1=O", "pEC50": "< 5.00"}
{"Chemical Structure": "O=C1c2ncccc2CN1Cc1ccc(-c2cccnc2)cc1F", "pEC50": "< 5.00"}

Data credit: patent US10654847B2
